Parameter: self-cleavage. Scope: all listed entries.
B1: LINE1-mini (parent)
chain: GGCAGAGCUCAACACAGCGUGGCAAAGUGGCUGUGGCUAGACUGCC

- Variants of: B1
- protocol_summary: self-cleavage, relative activity (ratio to wild type); higher = more cleavage; in vitro, sequencing; the parent is a self-cleaving ribozyme
measurement_label: self-cleavage

mutation_annotation	reported
G5A A14U	0.1
C13G U43G	0.66
G1C C15A	0.02
C15A A25G	0.12
G30C U38A	0.75
A39U U43G	0.02
A12G G29C	0.02
G1U U43C	0.06
C8U C13U	0.81
G21C A25G	0.94
G30A U34C	0.12
G19U G40U	0.1
C23A G36C	0.07
C8G G35A	0.13
A6C G35A	0.08
A4C G29C	0.24
U20G C31U	0.11
A4C A24U	0.17
C23A U34C	0.78
A16C G30U	0.05
A4G C18G	0.16
A12C G17C	0.02
